System: recombinant human MAO-B (monoamine oxidase-B) (Homo sapiens, UniProt P27338)
Construct: purchased Sigma-Aldrich
Sequence (P27338 1-520): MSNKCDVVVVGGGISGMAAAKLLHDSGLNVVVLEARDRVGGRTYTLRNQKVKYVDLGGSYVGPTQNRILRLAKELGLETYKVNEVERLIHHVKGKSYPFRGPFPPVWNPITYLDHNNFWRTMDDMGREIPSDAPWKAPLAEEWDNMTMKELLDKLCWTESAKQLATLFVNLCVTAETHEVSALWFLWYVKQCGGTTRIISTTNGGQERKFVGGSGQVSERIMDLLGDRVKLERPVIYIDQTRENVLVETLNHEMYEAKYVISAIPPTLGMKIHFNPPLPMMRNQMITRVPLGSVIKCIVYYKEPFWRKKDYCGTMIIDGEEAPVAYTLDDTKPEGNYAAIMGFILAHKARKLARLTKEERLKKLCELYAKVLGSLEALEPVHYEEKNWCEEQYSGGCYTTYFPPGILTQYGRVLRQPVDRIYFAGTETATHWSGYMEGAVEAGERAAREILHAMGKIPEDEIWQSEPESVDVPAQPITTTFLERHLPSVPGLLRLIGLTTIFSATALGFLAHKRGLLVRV
Procedure Summary: Activity on recombinant human MAO-B, Amplex Red method, 1 mM benzylamine substrate
Format: biochemical
Measurement Conditions: 1 mM benzylamine, read-out: Inhibitory Activity (IC50, nM) MAO-B
Where a name gives a salt, the structure may show the parent alone.
Property: log10(IC50) (log10 of the value in nM)
Hello, just confirming the data are log10 of IC50 with units of nM.

Example molecules with recorded log10(IC50):
>  <Molecule>
NC/C(=C\F)Cn1ncn(-c2cccc(Br)c2)c1=O [Example 4, hydrochloride]

>  <System>
recombinant human MAO-B (monoamine oxidase-B) (Homo sapiens, UniProt P27338)

>  <log10(IC50)>
2.24

$$$$
>  <Molecule>
NC/C(=C\F)Cn1ncn(-c2cccc(-c3ccc4sc(N)nc4c3)c2)c1=O [Example 99, hydrochloride]

>  <System>
recombinant human MAO-B (monoamine oxidase-B) (Homo sapiens, UniProt P27338)

>  <log10(IC50)>
3.81

$$$$
>  <Molecule>
CC(=O)c1ccc(-c2cnc(-n3cnn(C/C(=C/F)CN)c3=O)c(C)c2)s1 [Example 132, hydrochloride]

>  <System>
recombinant human MAO-B (monoamine oxidase-B) (Homo sapiens, UniProt P27338)

>  <log10(IC50)>
2.93

$$$$
>  <Molecule>
NC/C(=C\F)Cn1ncn(-c2cccc(-c3ccc4c(c3)OCO4)c2)c1=O [Example 93, hydrochloride]

>  <System>
recombinant human MAO-B (monoamine oxidase-B) (Homo sapiens, UniProt P27338)

>  <log10(IC50)>
2.34

$$$$
>  <Molecule>
CC(=O)Nc1ccc(-c2cccc(-c3cccc(-n4cnn(C/C(=C/F)CN)c4=O)c3)c2)cc1 [Example 69, hydrochloride]

>  <System>
recombinant human MAO-B (monoamine oxidase-B) (Homo sapiens, UniProt P27338)

>  <log10(IC50)>
3.04

$$$$

May I ask what log10(IC50) has been recorded for COc1cc(-c2cccc(-n3cnn(C/C(=C/F)CN)c3=O)c2)ccn1 [Example 79, hydrochloride] ?
3.90

What does the data say about its log10(IC50)? Entry: Cc1cc(-n2cnn(C/C(=C/F)CN)c2=O)ncc1Br [Example 34, hydrochloride]
2.56
